- Experimental System: Bromodomain testis-specific protein (Homo sapiens)
- Experimental Details: Inhibition of BRDT (unknown origin)
Value Kind: IC50

Return reported IC50; argument: CNC(=O)Nc1ccc2c(c1)CC[C@@]21OC(=O)N(CC(=O)N(Cc2ccc(F)cc2)[C@@H](C)C(F)(F)F)C1=O [A-485]
> 10 µM

###

- Experimental System: cGMP-dependent protein kinase 1 (Homo sapiens, UniProt Q13976)
- Sequence (Q13976 whole entry): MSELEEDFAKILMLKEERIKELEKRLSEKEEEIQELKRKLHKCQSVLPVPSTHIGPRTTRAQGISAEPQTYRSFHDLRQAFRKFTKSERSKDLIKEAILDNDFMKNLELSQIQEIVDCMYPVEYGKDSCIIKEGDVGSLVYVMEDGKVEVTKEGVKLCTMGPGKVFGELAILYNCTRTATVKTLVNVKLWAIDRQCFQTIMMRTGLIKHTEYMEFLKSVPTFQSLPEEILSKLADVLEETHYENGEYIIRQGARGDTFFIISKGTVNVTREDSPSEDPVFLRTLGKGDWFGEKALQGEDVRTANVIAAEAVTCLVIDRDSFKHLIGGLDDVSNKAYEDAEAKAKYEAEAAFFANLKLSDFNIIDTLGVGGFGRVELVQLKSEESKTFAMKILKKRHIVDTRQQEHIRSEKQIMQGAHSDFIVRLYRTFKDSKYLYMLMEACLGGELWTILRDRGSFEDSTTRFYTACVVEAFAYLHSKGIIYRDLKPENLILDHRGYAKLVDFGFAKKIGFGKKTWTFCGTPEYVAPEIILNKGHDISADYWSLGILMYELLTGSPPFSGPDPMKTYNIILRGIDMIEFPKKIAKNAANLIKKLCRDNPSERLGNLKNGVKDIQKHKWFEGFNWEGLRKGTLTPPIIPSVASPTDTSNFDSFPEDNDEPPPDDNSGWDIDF
pIC50: −log10 of the molar value.
Value Kind: pIC50

For cGMP-dependent protein kinase 1 (Homo sapiens, UniProt Q13976), provide pIC50 of `CNC(=O)Nc1ccc2c(c1)CC[C@@]21OC(=O)N(CC(=O)N(Cc2ccc(F)cc2)[C@@H](C)C(F)(F)F)C1=O` please.
< 5.00

###

- Experimental System: RAC-alpha serine/threonine-protein kinase (Homo sapiens, UniProt P31749)
- Sequence (P31749 whole entry): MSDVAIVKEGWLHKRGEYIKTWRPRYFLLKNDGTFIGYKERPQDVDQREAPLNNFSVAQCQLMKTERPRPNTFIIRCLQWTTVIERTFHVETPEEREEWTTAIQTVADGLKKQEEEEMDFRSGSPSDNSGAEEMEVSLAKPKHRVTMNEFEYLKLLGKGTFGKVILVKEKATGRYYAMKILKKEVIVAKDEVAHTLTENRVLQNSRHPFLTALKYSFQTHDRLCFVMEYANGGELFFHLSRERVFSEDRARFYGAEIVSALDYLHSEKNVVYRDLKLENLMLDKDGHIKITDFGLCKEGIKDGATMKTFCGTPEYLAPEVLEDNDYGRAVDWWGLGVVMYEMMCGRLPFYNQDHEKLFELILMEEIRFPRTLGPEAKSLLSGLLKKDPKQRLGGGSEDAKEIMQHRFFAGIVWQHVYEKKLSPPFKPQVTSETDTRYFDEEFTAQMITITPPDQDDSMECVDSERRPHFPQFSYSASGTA
pIC50: −log10 of the molar value.
Value Kind: pIC50

Return reported pIC50; argument: `CNC(=O)Nc1ccc2c(c1)CC[C@@]21OC(=O)N(CC(=O)N(Cc2ccc(F)cc2)[C@@H](C)C(F)(F)F)C1=O`
< 5.00

###

- Experimental System: Serine/threonine-protein kinase PLK3 (Homo sapiens, UniProt Q9H4B4)
- Sequence (Q9H4B4 whole entry): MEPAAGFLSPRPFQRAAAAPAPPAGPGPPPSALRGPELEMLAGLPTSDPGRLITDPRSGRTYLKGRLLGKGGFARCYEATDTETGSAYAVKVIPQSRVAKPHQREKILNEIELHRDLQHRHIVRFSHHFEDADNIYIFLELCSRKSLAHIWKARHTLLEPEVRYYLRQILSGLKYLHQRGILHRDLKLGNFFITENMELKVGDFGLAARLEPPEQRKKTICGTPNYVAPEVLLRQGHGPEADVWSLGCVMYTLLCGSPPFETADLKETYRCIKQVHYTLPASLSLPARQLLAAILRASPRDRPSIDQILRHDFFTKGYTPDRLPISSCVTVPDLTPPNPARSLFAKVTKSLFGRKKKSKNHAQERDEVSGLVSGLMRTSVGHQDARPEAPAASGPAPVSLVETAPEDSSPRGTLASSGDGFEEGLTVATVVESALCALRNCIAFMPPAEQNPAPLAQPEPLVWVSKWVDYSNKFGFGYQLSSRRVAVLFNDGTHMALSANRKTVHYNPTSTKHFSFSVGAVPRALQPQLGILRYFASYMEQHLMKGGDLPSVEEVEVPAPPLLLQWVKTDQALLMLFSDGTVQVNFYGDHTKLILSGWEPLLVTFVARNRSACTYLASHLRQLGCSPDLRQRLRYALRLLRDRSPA
Value Kind: IC50 (µM)
Numbers only; they are read as µM.

For Serine/threonine-protein kinase PLK3 (Homo sapiens, UniProt Q9H4B4), provide IC50 of `CNC(=O)Nc1ccc2c(c1)CC[C@@]21OC(=O)N(CC(=O)N(Cc2ccc(F)cc2)[C@@H](C)C(F)(F)F)C1=O` please.
2.69

###

- Experimental System: Serine/threonine-protein kinase pim-1 (Homo sapiens, UniProt P11309)
- Sequence (P11309 whole entry): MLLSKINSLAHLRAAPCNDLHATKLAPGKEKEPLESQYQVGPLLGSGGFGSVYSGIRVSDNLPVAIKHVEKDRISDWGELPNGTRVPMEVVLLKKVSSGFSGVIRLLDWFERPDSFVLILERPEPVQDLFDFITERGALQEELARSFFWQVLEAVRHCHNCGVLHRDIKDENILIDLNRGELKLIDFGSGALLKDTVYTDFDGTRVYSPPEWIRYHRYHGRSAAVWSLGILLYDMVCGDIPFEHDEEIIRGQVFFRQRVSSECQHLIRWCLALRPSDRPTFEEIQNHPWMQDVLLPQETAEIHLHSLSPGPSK
Value Kind: IC50

Return reported IC50; argument: CNC(=O)Nc1ccc2c(c1)CC[C@@]21OC(=O)N(CC(=O)N(Cc2ccc(F)cc2)[C@@H](C)C(F)(F)F)C1=O [A-485]
> 10 µM

###

- Experimental System: Glycogen synthase kinase-3 beta (Homo sapiens, UniProt P49841)
- Sequence (P49841 whole entry): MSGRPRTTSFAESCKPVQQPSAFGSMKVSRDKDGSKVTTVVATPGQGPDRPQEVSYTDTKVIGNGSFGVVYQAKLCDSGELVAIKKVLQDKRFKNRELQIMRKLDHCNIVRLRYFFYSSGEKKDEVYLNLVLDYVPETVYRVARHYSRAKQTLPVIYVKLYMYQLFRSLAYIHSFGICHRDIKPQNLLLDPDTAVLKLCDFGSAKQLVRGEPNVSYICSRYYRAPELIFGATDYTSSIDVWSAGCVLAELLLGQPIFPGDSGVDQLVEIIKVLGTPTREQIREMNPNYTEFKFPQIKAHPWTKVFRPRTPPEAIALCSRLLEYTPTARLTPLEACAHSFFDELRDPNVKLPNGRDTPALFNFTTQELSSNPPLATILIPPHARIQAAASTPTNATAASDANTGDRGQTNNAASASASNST
- Experimental Details: Inhibition of Gsk3beta (unknown origin)
pIC50: −log10 of the molar value.
Value Kind: pIC50

Return reported pIC50; argument: `CNC(=O)Nc1ccc2c(c1)CC[C@@]21OC(=O)N(CC(=O)N(Cc2ccc(F)cc2)[C@@H](C)C(F)(F)F)C1=O`
< 5.00

###

- System: NCI-H211
- Experimental Details: Antiproliferative activity against human NCI-H211 cells assessed as inhibition of cell viability incubated for 3 to 5 days by Celltiter-Glo luminescent assay
- Assay type: functional, cell-based
Value Kind: EC50 (nM)
Numbers only; they are read as nM.

For NCI-H211, provide EC50 of `CNC(=O)Nc1ccc2c(c1)CC[C@@]21OC(=O)N(CC(=O)N(Cc2ccc(F)cc2)[C@@H](C)C(F)(F)F)C1=O` please.
1500

###

- Experimental System: Mitogen-activated protein kinase 9 (Homo sapiens, UniProt P45984)
- Sequence (P45984 whole entry): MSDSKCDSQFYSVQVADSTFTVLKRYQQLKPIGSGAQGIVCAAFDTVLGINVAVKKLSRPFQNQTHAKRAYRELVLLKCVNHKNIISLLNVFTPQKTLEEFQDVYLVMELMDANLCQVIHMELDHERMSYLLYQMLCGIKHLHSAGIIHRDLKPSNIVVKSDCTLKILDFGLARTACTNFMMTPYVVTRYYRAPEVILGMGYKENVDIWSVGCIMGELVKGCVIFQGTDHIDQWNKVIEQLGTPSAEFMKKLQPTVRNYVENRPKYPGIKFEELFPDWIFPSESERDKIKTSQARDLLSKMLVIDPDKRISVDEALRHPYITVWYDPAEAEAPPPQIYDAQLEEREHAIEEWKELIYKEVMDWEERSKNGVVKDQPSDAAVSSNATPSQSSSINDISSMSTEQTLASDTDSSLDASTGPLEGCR
- Experimental Details: Inhibition of JNK2 (unknown origin)
pIC50: −log10 of the molar value.
Value Kind: pIC50

Return reported pIC50; argument: `CNC(=O)Nc1ccc2c(c1)CC[C@@]21OC(=O)N(CC(=O)N(Cc2ccc(F)cc2)[C@@H](C)C(F)(F)F)C1=O`
< 5.00

###

- Experimental System: Serine/threonine-protein kinase 16 (Homo sapiens)
- Sequence (O75716 whole entry): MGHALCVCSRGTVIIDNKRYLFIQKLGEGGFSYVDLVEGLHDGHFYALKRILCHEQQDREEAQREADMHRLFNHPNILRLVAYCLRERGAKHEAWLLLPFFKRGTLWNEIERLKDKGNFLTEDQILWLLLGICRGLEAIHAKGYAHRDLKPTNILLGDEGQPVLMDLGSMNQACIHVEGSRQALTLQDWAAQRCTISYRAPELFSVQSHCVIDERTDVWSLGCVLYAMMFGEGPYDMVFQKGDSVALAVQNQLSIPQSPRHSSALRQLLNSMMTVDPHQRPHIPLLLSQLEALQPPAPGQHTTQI
Value Kind: IC50

Return reported IC50; argument: CNC(=O)Nc1ccc2c(c1)CC[C@@]21OC(=O)N(CC(=O)N(Cc2ccc(F)cc2)[C@@H](C)C(F)(F)F)C1=O [A-485]
> 10 µM
